B1: Protein piccolo, residues 1058 to 1114; numbered along this chain, Q9Y6V0 (parent)
chain: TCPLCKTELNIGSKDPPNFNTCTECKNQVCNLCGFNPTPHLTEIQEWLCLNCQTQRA

Variants of: B1
Experiment: abundance fitness (aPCA) (normalised: wild type 0, dead -1); higher = more abundant; growth selection in yeast, the domain comes from the species named
Settings: Homo sapiens
Lab note: class by abundance fitness, see lower segment: < -0.2; middle segment: ≥ -0.2 and < 0.004; upper segment: ≥ 0.004

Answered cases to consult:
TCPLCKTELNIGSKDPPNFNTCTECSNQVCNLCGFNPTPHLTEIQEWLCLNCQTQRA [K26S]    upper segment
TCPLCKTELNIGSKDPPNFNTCTECKNQVCNLCGFNPTYHLTEIQEWLCLNCQTQRA [P39Y]    middle segment
TCPLCKTELNIGSKDPPNFNTCTECKNVVCNLCGFNPTPHLTEIQEWLCLNCQTQRA [Q28V]    middle segment
TCPLCKTELNIHSKDPPNFNTCTECKNQVCNLCGFNPTPHLTEIQEWLCLNCQTQRA [G12H]    middle segment
TCPLCKTELNIGSKDPPNFNTCTECKNQVCNLCGFNPTPHLTEIQEWLCLNCMTQRA [Q53M]    lower segment

Prompt: Which abundance fitness category applies to TCPLCKTELQIGSKDPPNFNTCTECKNQVCNLCGFNPTPHLTEIQEWLCLNCQTQRA [N10Q] here?
Completion: middle segment

Prompt: Which abundance fitness category applies to TCPLCKTELNIGSKDPPNFNTCTEGKNQVCNLCGFNPTPHLTEIQEWLCLNCQTQRA [C25G] here?
Completion: lower segment

Prompt: Which abundance fitness category applies to TCPLCKTELNIGSKDGPNFNTCTECKNQVCNLCGFNPTPHLTEIQEWLCLNCQTQRA [P16G] here?
Completion: lower segment

Prompt: Which abundance fitness category applies to TCPLCKTELNIQSKDPPNFNTCTECKNQVCNLCGFNPTPHLTEIQEWLCLNCQTQRA [G12Q] here?
Completion: lower segment

Prompt: Which abundance fitness category applies to TCPLCKTELNIGSKNPPNFNTCTECKNQVCNLCGFNPTPHLTEIQEWLCLNCQTQRA [D15N] here?
Completion: upper segment

Prompt: Which abundance fitness category applies to TCPLCKTELNIGSKDPPNFNTCTECKNQVCNLCGFNPTPHLTEIQEWLCNNCQTQRA [L50N] here?
Completion: upper segment

Prompt: Which abundance fitness category applies to TCPLCKTELNIGSKDPPNFNTCTECKPQVCNLCGFNPTPHLTEIQEWLCLNCQTQRA [N27P] here?
Completion: lower segment

Prompt: Which abundance fitness category applies to TCPLCKTELNIGSKDPPVFNTCTECKNQVCNLCGFNPTPHLTEIQEWLCLNCQTQRA [N18V] here?
Completion: lower segment

Prompt: Which abundance fitness category applies to TCPLCKTELNIGSKDPPNFNTCTECKNQVCNLCGFNPTPHLTEIQEHLCLNCQTQRA [W47H] here?
Completion: middle segment

Prompt: Which abundance fitness category applies to TCPLCSTELNIGSKDPPNFNTCTECKNQVCNLCGFNPTPHLTEIQEWLCLNCQTQRA [K6S] here?
Completion: upper segment

Prompt: Which abundance fitness category applies to TCPLCKTEYNIGSKDPPNFNTCTECKNQVCNLCGFNPTPHLTEIQEWLCLNCQTQRA [L9Y] here?
Completion: middle segment

Prompt: Which abundance fitness category applies to TCPLCKTELNIGSKDTPNFNTCTECKNQVCNLCGFNPTPHLTEIQEWLCLNCQTQRA [P16T] here?
Completion: lower segment

Prompt: Which abundance fitness category applies to TCPLCKTELNIGSKDPPNFMTCTECKNQVCNLCGFNPTPHLTEIQEWLCLNCQTQRA [N20M] here?
Completion: upper segment

Prompt: Which abundance fitness category applies to TCPLCKTELNIGSKDPPNFNTCTECKNQVCNLCGFNPTPHLTEIREWLCLNCQTQRA [Q45R] here?
Completion: middle segment

Prompt: Which abundance fitness category applies to TCPLCKTELNIGSKDPPNFNTCTECKNQVCNLCGFNPTPTLTEIQEWLCLNCQTQRA [H40T] here?
Completion: upper segment

Prompt: Which abundance fitness category applies to TCPLCKTELNIGSKDPPNFNTCTHCKNQVCNLCGFNPTPHLTEIQEWLCLNCQTQRA [E24H] here?
Completion: middle segment
